Tested on: Mythimna separata
Assay: Antifeedant activity against second-instar larvae of Mythimna separata (Oriental armyworm) in compound treated leaves assessed as growth inhibition measured after 5 days by chronic growth bioassay
Format: functional, organism-based
Settings: 120 h, read-out: EC50
Field: label. Allowed values: class 1 (EC50 < 60 µg/mL) or class 0 (EC50 >= 60 µg/mL).

Query string: Quick check: does CC(C)(C)n1ncc(SCc2nnc(-c3ccc(Cl)cc3)o2)c(Cl)c1=O have EC50 under 60 µg/mL?
Result string: class 0

Query string: Quick check: does CC(C)(C)n1ncc(OCc2nnc(-c3cccs3)o2)c(Cl)c1=O have EC50 under 60 µg/mL?
Result string: class 0

Query string: Quick check: does CC(C)(C)n1ncc(OCc2nnc(-c3cc(F)c(F)cc3F)o2)c(Cl)c1=O have EC50 under 60 µg/mL?
Result string: class 0

Query string: Quick check: does CC(C)(C)n1ncc(OCc2nnc(-c3ccc(Cl)cc3F)o2)c(Cl)c1=O have EC50 under 60 µg/mL?
Result string: class 1

Query string: Quick check: does CC(C)(C)n1ncc(OCc2nnc(-c3cc(F)c(Cl)c([N+](=O)[O-])c3Cl)o2)c(Cl)c1=O have EC50 under 60 µg/mL?
Result string: class 0

Query string: Quick check: does CC(C)(C)n1ncc(OCc2nnc(-c3ccccc3)o2)c(Cl)c1=O have EC50 under 60 µg/mL?
Result string: class 1

Query string: Quick check: does Cc1cc(C)cc(-c2nnc(COc3cnn(C(C)(C)C)c(=O)c3Cl)o2)c1 have EC50 under 60 µg/mL?
Result string: class 0

Query string: Quick check: does CC(C)(C)n1ncc(OCc2nnc(-c3ccc(F)cc3)s2)c(Cl)c1=O have EC50 under 60 µg/mL?
Result string: class 1

----------
System: Mythimna separata
Test: Antifeedant activity against second-instar larvae of Mythimna separata (Oriental armyworm) in compound treated leaves assessed as growth inhibition measured after 5 days by chronic growth bioassay
Type: functional, organism-based
Conditions: 120 h, read-out: EC50
Would you mind telling me the reported EC50 of each entry?
// return numeric value only (unit: µg/mL, not printed)

Query string: Item CCc1ccc(-c2nnc(COc3cnn(C(C)(C)C)c(=O)c3Cl)o2)cc1 has what recorded EC50?
Result string: 14.5

Query string: Item COc1ccc(-c2nnc(COc3cnn(C(C)(C)C)c(=O)c3Cl)o2)cc1 has what recorded EC50?
Result string: 17.7

Query string: Item CCCCn1ncc(OCc2nnc(-c3ccc(F)cc3)o2)c(Cl)c1=O has what recorded EC50?
Result string: 162

Query string: Item C/C=C(\C)C(=O)O[C@H]1C[C@@H](OC(C)=O)[C@@]2(C(=O)OC)CO[C@H]3[C@@H](O)[C@@](C)([C@]45O[C@@]4(C)[C@@H]4C[C@H]5O[C@@H]5OC=C[C@@]54O)[C@H]4[C@]1(CO[C@]4(O)C(=O)OC)[C@@H]32 [AZADIRACHTIN A] has what recorded EC50?
Result string: 0.58

Query string: Item CC(C)(C)n1ncc(SCc2nnc(-c3ccc(F)cc3)o2)c(Cl)c1=O has what recorded EC50?
Result string: 150

Query string: Item CC(C)(C)n1ncc(OCc2nnc(-c3ccc(Cl)cc3Cl)o2)c(Cl)c1=O has what recorded EC50?
Result string: 27.8

Query string: Item CC(C)(C)n1ncc(OCc2nnc(-c3ccccc3)s2)c(Cl)c1=O has what recorded EC50?
Result string: 200

Query string: Item CC(C)(C)n1ncc(SCc2nnc(-c3ccccc3F)o2)c(Cl)c1=O has what recorded EC50?
Result string: 269

Query string: Item CC(C)(C)n1ncc(OCc2nnc(-c3c(F)cccc3F)o2)c(Cl)c1=O has what recorded EC50?
Result string: 45.4

Query string: Item CC(C)(C)n1ncc(OCc2nnc(-c3ccc(Cl)cc3Cl)s2)c(Cl)c1=O has what recorded EC50?
Result string: 62.2

Query string: Item CCCCn1ncc(OCc2nnc(-c3ccc(Cl)cc3)o2)c(Cl)c1=O has what recorded EC50?
Result string: 224

Query string: Item CC(C)(C)n1ncc(OCc2nnc(-c3cc(F)c(Cl)cc3Cl)o2)c(Cl)c1=O has what recorded EC50?
Result string: 23.1

Query string: Item CC(C)(C)n1ncc(OCc2nnc(-c3ccc(Cl)cc3)o2)c(Cl)c1=O has what recorded EC50?
Result string: 1.9

Query string: Item CC(C)(C)n1ncc(OCc2nnc(-c3cccc(F)c3)o2)c(Cl)c1=O has what recorded EC50?
Result string: 7.1

Query string: Item CC(C)(C)n1ncc(OCc2nnc(-c3cc(F)c(F)c(F)c3F)o2)c(Cl)c1=O has what recorded EC50?
Result string: 241

Query string: Item CC(C)(C)n1ncc(OCc2nnc(-c3ccccc3F)o2)c(Cl)c1=O has what recorded EC50?
Result string: 16.8

Query string: Item CC(C)(C)n1ncc(OCc2nnc(-c3cc(F)c(Cl)cc3Cl)s2)c(Cl)c1=O has what recorded EC50?
Result string: 67.1

Query string: Item CC(C)(C)n1ncc(OCc2nnc(-c3ccc(F)cc3)o2)c(Cl)c1=O has what recorded EC50?
Result string: 5.2

Query string: Item CC(C)(C)n1ncc(SCc2nnc(-c3cccc(F)c3)o2)c(Cl)c1=O has what recorded EC50?
Result string: 243

Query string: Item CC(C)(C)n1ncc(OCc2nnc(-c3ccc(Cl)cc3)s2)c(Cl)c1=O has what recorded EC50?
Result string: 106

Query string: Item CC(C)(C)n1ncc(OCc2nnc(-c3ccc(C(F)(F)F)cc3)o2)c(Cl)c1=O has what recorded EC50?
Result string: 34.1

Query string: Item Cc1ccc(-c2nnc(COc3cnn(C(C)(C)C)c(=O)c3Cl)o2)cc1 has what recorded EC50?
Result string: 19.9

Query string: Item CC(C)(C)n1ncc(OCc2nnc(-c3ccc(Br)cc3)o2)c(Cl)c1=O has what recorded EC50?
Result string: 21.4

Query string: Item CC(C)(C)n1ncc(OCc2nnc(-c3ccccc3F)s2)c(Cl)c1=O has what recorded EC50?
Result string: 121

Query string: Item Cc1cccc(-c2nnc(COc3cnn(C(C)(C)C)c(=O)c3Cl)o2)c1 has what recorded EC50?
Result string: 116

Query string: Item CC(C)(C)n1ncc(OCc2nnc(-c3c(F)c(F)c(F)c(F)c3F)o2)c(Cl)c1=O has what recorded EC50?
Result string: 271

Query string: Item O=c1c(Cl)c(OCc2nnc(-c3ccccc3)o2)cnn1-c1ccccc1 has what recorded EC50?
Result string: 91.5
